assay: Stability of peptides in simulated intestinal fluid (pH 7.5); format: in vitro ADME; details: simulated intestinal fluid, 24 h, 2 μM, pH 7.5
Where a SMILES comes first, the peptide text is derived from it. [ ]: non-standard residue; d: D form. ξ: configuration not given here. Arg(NO2) = N=C(NCCC[C@H](N)C(=O)O)N[N+](=O)[O-]; ξαMePhe(2,6-F2) = CC(N)(Cc1c(F)cccc1F)C(=O)O; ξαMePhe(2-F) = CC(N)(Cc1ccccc1F)C(=O)O; hArg = N=C(N)NCCCC[C@H](N)C(=O)O; Nle = CCCC[C@H](N)C(=O)O; Orn = NCCC[C@H](N)C(=O)O; Ac5c = NC1(C(=O)O)CCCC1; Aib = CC(C)(N)C(=O)O
MEASUREMENT_KIND: % degradation of peptides in 24 h when incubated with simulated intestinal fluid (%)
Report only the number, with the unit % understood.

INSERT INTO assay_data (compound, measured) VALUES
  ('CCCC[C@H](NC(=O)C(C)(Cc1ccccc1F)NC(=O)[C@H](CCC(N)=O)NC(=O)[C@@H](NC(=O)[C@H](CCC(=O)O)NC(=O)C(C)(C)NC(=O)[C@@H](NC(=O)C1(N)CCCC1)C(C)C)[C@@H](C)CC)C(=O)N[C@@H](Cc1c[nH]cn1)C(=O)N[C@@H](CCC(N)=O)C(=O)N[C@@H](CCCN)C(=O)N[C@@H](C)C(=O)NC(C)(Cc1c(F)cccc1F)C(=O)NC(C)(Cc1ccccc1F)C(N)=O (some centres unmarked) [Seq. ID. 315] (H-[Ac5c]V[Aib]EIQ[ξαMePhe(2-F)][Nle]HQ[Orn]A[ξαMePhe(2,6-F2)][ξαMePhe(2-F)]-NH2)', 100);

# evaluate next
Could you share which % degradation of peptides in 24 h when incubated with simulated intestinal fluid value was measured for CCCC[C@H](NC(=O)C(C)(Cc1ccccc1F)NC(=O)[C@H](CCC(N)=O)NC(=O)[C@@H](NC(=O)[C@H](CCC(=O)O)NC(=O)C(C)(C)NC(=O)[C@@H](NC(=O)C1(N)CCCC1)C(C)C)[C@@H](C)CC)C(=O)N[C@@H](Cc1c[nH]cn1)C(=O)N[C@@H](CCC(N)=O)C(=O)N[C@@H](CCCCNC(=N)N)C(=O)NC(C)(C)C(=O)N[C@@H](CCCNC(=N)N[N+](=O)[O-])C(=O)NC(C)(Cc1ccccc1F)C(N)=O (some centres unmarked) [Seq. ID. 250] (H-[Ac5c]V[Aib]EIQ[ξαMePhe(2-F)][Nle]HQ[hArg][Aib][Arg(NO2)][ξαMePhe(2-F)]-NH2) ?
43

----------
test: Stability of peptides in simulated gastric fluid (pH 1.5; HCl, NaCl and Pepsin); type: in vitro ADME; conditions: simulated gi fluid, pH 1.5
Where a SMILES comes first, the peptide text is derived from it. [ ]: non-standard residue; d: D form. ξ: configuration not given here. ξBip(2'-Et-4'-OMe) = CCc1cc(OC)ccc1-c1ccc(CC(N)C(=O)O)cc1; Arg(NO2) = N=C(NCCC[C@H](N)C(=O)O)N[N+](=O)[O-]; ξαMePhe(2,6-F2) = CC(N)(Cc1c(F)cccc1F)C(=O)O; ξαMe(hhPhe) = CC(N)(CCCc1ccccc1)C(=O)O; ξαMePhe(2-F) = CC(N)(Cc1ccccc1F)C(=O)O; ξαMeW = CC(N)(Cc1c[nH]c2ccccc12)C(=O)O; hhPhe = N[C@@H](CCCc1ccccc1)C(=O)O; hArg = N=C(N)NCCCC[C@H](N)C(=O)O; hCit = NC(=O)NCCCC[C@H](N)C(=O)O; Cit = NC(=O)NCCC[C@H](N)C(=O)O; ξαMeNle = CCCCC(C)(N)C(=O)O; Nle = CCCC[C@H](N)C(=O)O; Ac5c = NC1(C(=O)O)CCCC1; Aib = CC(C)(N)C(=O)O
MEASUREMENT_KIND: half-life (h)
Report only the number, with the unit h understood.

Examples from the recorded data:
INSERT INTO measurements (compound, measured) VALUES
  ('CCCC[C@H](NC(=O)C(C)(Cc1ccccc1F)NC(=O)[C@H](CCC(N)=O)NC(=O)[C@@H](NC(=O)[C@H](CCC(=O)O)NC(=O)C(C)(C)NC(=O)[C@@H](NC(=O)C1(N)CCCC1)C(C)C)[C@@H](C)CC)C(=O)N[C@@H](Cc1c[nH]cn1)C(=O)N[C@@H](CCC(N)=O)C(=O)N[C@@H](CCCCNC(=N)N)C(=O)NC(C)(C)C(=O)N[C@@H](CCCNC(=N)N[N+](=O)[O-])C(=O)NC(C)(Cc1c(F)cccc1F)C(N)=O (some centres unmarked) [Seq. ID. 270] (H-[Ac5c]V[Aib]EIQ[ξαMePhe(2-F)][Nle]HQ[hArg][Aib][Arg(NO2)][ξαMePhe(2,6-F2)]-NH2)', 0.5),
  ('CCCC[C@H](NC(=O)[C@H](CC(C)C)NC(=O)[C@H](CCC(N)=O)NC(=O)[C@@H](NC(=O)[C@H](CCC(=O)O)NC(=O)C(C)(C)NC(=O)[C@@H](NC(=O)C(C)(C)N)C(C)C)[C@@H](C)CC)C(=O)N[C@@H](Cc1c[nH]cn1)C(=O)N[C@@H](CCC(N)=O)C(=O)N[C@@H](CCCCNC(N)=O)C(=O)NC(C)(C)C(=O)NC(C)(C)C(=O)NC(Cc1ccc(-c2ccc(OC)cc2CC)cc1)C(=O)N[C@@H](CCCc1ccccc1)C(N)=O (some centres unmarked) [Seq. ID. 790] (H-[Aib]V[Aib]EIQL[Nle]HQ[hCit][Aib][Aib][ξBip(2''-Et-4''-OMe)][hhPhe]-NH2)', 4),
  ('CCCCC(C)(NC(=O)[C@H](CC(C)C)NC(=O)[C@H](CCC(N)=O)NC(=O)[C@@H](NC(=O)[C@H](CCC(=O)O)NC(=O)C(C)(C)NC(=O)[C@@H](NC(=O)C(C)(C)N)C(C)C)[C@@H](C)CC)C(=O)N[C@@H](Cc1c[nH]cn1)C(=O)N[C@@H](CCC(N)=O)C(=O)N[C@@H](CCCCNC(=N)N)C(=O)N[C@@H](C)C(=O)N[C@@H](CCCCNC(=N)N)C(=O)NC(C)(Cc1c[nH]c2ccccc12)C(=O)NC(C)(CCCc1ccccc1)C(N)=O (some centres unmarked) [Seq. ID. 949] (H-[Aib]V[Aib]EIQL[ξαMeNle]HQ[hArg]A[hArg][ξαMeW][ξαMe(hhPhe)]-NH2)', 0.5),
  ('CCCC[C@H](NC(=O)C(C)(Cc1ccccc1F)NC(=O)[C@H](CCC(N)=O)NC(=O)[C@@H](NC(=O)[C@H](CCC(=O)O)NC(=O)C(C)(C)NC(=O)[C@@H](NC(=O)C1(N)CCCC1)C(C)C)[C@@H](C)CC)C(=O)N[C@@H](Cc1c[nH]cn1)C(=O)N[C@@H](CCC(N)=O)C(=O)N[C@@H](CCCNC(N)=O)C(=O)NC(C)(C)C(=O)NC(C)(Cc1c(F)cccc1F)C(=O)NC(C)(Cc1ccccc1F)C(N)=O (some centres unmarked) [Seq. ID. 380] (H-[Ac5c]V[Aib]EIQ[ξαMePhe(2-F)][Nle]HQ[Cit][Aib][ξαMePhe(2,6-F2)][ξαMePhe(2-F)]-NH2)', 4);

# evaluate next
Could you share which half-life value was measured for CCCC[C@H](NC(=O)C(C)(Cc1c(F)cccc1F)NC(=O)[C@H](CCC(N)=O)NC(=O)[C@@H](NC(=O)[C@H](CCC(=O)O)NC(=O)C(C)(C)NC(=O)[C@@H](NC(=O)C(C)(C)N)C(C)C)[C@@H](C)CC)C(=O)N[C@@H](Cc1c[nH]cn1)C(=O)N[C@@H](CCC(N)=O)C(=O)N[C@@H](CCCCNC(N)=O)C(=O)NC(C)(C)C(=O)NC(C)(C)C(=O)NC(C)(Cc1ccccc1F)C(N)=O (some centres unmarked) [Seq. ID. 430] (H-[Aib]V[Aib]EIQ[ξαMePhe(2,6-F2)][Nle]HQ[hCit][Aib][Aib][ξαMePhe(2-F)]-NH2) ?
4
